Biological target: HIPK1 (Homo sapiens)
Sequence (Q86Z02 whole entry): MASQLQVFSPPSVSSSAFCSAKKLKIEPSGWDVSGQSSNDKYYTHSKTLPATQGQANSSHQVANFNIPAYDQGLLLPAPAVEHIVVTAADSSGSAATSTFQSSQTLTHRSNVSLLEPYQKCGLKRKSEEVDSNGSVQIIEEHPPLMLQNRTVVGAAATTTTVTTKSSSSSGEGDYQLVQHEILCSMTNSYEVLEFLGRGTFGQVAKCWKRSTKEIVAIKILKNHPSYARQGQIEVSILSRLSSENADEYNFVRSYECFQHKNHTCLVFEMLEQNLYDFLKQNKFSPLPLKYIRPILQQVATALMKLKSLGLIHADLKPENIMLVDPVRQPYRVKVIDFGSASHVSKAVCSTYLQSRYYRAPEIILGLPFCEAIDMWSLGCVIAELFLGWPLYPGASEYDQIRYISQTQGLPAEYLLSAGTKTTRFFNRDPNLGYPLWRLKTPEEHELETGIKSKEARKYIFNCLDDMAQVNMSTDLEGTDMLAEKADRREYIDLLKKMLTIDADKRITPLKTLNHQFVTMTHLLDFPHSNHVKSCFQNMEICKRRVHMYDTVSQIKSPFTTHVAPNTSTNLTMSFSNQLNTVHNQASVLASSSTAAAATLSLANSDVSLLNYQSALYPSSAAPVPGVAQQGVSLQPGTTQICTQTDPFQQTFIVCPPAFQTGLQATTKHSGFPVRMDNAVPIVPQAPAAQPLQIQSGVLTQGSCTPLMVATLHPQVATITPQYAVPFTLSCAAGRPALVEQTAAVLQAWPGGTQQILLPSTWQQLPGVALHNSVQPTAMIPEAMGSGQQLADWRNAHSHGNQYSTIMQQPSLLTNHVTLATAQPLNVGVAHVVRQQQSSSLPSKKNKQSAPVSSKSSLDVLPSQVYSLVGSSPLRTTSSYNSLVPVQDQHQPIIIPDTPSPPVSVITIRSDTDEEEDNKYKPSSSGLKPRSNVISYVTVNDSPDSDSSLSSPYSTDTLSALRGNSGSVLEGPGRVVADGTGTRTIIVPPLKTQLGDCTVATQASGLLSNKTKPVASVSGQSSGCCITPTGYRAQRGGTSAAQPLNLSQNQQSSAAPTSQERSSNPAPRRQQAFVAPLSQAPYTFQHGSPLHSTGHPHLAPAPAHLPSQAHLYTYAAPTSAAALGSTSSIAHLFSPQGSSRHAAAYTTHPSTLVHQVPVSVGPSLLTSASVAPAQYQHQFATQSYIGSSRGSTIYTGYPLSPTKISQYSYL
Recorded Endpoint: pIC50
// returns pIC50 (minus log10 of molar concentration), number only

Input COc1ccc(-c2cc3nccn3c(Nc3ncccc3C(N)=O)n2)cc1OC.Cl.Cl [BAY61-3606, reference compound] . Output pIC50: 5.37
